Below, each of the compounds is paired with its reported DC50 value.
Target: G2019S LRRK2 (Homo sapiens, UniProt Q5S007, G2019S)
Construct: expressed in transfected cells; host or cells: HEK293 (ATCC CRL-1573), transient transfection, mammalian expression vector with ubiquitin promoter
Sequence (Q5S007 whole entry G2019S): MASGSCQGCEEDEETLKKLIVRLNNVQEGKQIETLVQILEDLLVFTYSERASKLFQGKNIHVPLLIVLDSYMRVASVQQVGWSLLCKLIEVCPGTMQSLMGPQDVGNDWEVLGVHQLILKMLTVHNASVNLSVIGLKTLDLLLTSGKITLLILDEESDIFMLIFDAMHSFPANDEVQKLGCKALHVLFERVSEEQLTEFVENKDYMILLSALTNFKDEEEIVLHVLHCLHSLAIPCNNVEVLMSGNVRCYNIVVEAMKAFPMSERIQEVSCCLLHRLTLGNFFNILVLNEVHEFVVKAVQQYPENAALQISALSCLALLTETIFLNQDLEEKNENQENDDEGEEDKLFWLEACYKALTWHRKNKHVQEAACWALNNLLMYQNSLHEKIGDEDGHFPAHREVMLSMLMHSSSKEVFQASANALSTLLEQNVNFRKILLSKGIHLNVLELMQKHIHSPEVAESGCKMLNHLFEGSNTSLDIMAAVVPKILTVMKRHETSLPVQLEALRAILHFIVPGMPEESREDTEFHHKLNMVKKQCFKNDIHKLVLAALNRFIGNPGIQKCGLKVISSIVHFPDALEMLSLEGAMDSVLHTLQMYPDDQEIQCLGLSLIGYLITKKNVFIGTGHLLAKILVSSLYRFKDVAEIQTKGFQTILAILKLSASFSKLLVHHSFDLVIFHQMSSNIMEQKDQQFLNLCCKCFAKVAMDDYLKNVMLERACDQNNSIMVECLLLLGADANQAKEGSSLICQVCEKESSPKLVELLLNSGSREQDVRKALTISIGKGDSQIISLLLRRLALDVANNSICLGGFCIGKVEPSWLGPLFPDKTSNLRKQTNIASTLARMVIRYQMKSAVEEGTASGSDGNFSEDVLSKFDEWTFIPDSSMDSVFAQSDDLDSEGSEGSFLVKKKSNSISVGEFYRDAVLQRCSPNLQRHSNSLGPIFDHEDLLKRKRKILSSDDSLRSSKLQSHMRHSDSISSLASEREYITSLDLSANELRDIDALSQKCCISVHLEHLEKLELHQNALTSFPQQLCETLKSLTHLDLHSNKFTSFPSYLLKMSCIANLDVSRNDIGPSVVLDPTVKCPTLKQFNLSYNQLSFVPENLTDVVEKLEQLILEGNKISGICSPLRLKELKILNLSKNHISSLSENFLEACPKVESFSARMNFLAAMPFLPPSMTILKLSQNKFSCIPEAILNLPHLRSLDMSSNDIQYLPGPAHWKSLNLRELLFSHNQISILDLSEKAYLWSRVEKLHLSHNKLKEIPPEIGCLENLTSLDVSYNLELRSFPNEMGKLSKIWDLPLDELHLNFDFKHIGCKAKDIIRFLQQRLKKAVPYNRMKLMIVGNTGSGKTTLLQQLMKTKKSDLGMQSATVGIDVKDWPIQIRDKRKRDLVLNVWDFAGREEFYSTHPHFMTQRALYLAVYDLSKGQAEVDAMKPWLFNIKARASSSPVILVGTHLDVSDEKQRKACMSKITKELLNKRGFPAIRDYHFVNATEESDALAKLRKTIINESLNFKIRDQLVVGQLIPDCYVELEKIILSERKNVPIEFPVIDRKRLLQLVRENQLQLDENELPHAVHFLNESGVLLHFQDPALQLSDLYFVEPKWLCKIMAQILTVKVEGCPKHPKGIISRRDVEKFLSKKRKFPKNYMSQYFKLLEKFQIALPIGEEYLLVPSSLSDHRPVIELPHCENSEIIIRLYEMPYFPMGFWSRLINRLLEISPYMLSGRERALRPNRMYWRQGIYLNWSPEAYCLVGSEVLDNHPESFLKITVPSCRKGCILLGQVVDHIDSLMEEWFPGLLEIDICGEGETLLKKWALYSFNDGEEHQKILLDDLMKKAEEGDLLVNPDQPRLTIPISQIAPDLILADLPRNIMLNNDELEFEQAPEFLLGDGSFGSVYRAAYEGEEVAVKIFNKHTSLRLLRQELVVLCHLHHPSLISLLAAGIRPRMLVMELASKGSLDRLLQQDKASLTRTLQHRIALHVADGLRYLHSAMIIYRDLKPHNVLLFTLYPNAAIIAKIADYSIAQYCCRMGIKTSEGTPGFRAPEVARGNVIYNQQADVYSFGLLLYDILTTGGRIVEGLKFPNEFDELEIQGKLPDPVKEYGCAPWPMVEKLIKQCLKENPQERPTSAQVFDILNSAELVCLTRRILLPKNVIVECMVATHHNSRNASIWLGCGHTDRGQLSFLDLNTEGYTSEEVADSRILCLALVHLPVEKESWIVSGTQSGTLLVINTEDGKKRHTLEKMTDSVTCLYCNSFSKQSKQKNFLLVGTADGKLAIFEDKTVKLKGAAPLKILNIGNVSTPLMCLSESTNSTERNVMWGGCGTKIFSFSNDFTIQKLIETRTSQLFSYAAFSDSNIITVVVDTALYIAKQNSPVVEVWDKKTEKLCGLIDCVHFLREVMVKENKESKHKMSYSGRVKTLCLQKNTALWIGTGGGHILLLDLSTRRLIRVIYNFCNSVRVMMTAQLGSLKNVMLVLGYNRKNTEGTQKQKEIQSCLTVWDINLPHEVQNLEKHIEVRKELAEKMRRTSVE
Assay: LRRK2 degradation assay, HiBit-tagged G2019S LRRK2 expressed from plasmid in HEK293 cells (Nano-Glo Dual-Luciferase)
Assay type: cell-based
Conditions: HiBit-tagged G2019S LRRK2 in HEK293 cells, 24 hours

Value of DC50 reported for the compound CC1(Oc2ccc3[nH]nc(-c4cc(N5CCC(O[C@@H]6CCN(CC7CCN(c8ccc9c(c8)C(=O)N(C8CCC(=O)NC8=O)C9=O)CC7)C6)CC5)ncn4)c3c2)CC1 (stereo partly shown) is < 10 nM

Value of DC50 reported for the compound CC1(Oc2ccc3[nH]nc(-c4cc(N5CCN(CC(F)(F)C6CCN(CC7CCN(c8ccc9c(c8)C(=O)N(C8CCC(=O)NC8=O)C9=O)CC7)CC6)CC5)ncn4)c3c2)CC1 (stereo not shown) is < 10 nM

Value of DC50 reported for the compound CC1(Oc2ccc3[nH]nc(-c4cc(N5CCN(CC6CCN(CCCCNc7cccc8c7CN(C7CCC(=O)NC7=O)C8=O)CC6)CC5)ncn4)c3c2)CC1 (stereo not shown) is 10 to 50 nM

Value of DC50 reported for the compound CC1(Oc2ccc3[nH]nc(-c4ccnc(N5CC(CN6CCN(CC7CCN(c8ccc9c(c8)C(=O)N(C8CCC(=O)NC8=O)C9=O)CC7)CC6)C5)c4)c3c2)CC1 (stereo not shown) is < 10 nM

Value of DC50 reported for the compound C[C@H]1CN(c2cc(-c3n[nH]c4ccc(OC5(C)CC5)cc34)ccn2)CCN1CC1(F)CCN(CC2CCN(c3ccc4c(c3)C(=O)N(C3CCC(=O)NC3=O)C4=O)CC2)CC1 (stereo partly shown) is < 10 nM

Value of DC50 reported for the compound CC1(Oc2ccc3n[nH]c(-c4cc(N5CCN(CC6(F)CCN(C(=O)C7CN(c8ccc9c(c8)C(=O)N(C8CCC(=O)NC8=O)C9=O)C7)CC6)CC5)ncn4)c3c2)CC1 (stereo not shown) is < 10 nM

* * *

Biological target: wildtype LRRK2 (Homo sapiens)
Construct: expressed in transfected cells; host or cells: HEK293 (ATCC CRL-1573), transient transfection, mammalian expression vector with ubiquitin promoter
Sequence (Q5S007 whole entry): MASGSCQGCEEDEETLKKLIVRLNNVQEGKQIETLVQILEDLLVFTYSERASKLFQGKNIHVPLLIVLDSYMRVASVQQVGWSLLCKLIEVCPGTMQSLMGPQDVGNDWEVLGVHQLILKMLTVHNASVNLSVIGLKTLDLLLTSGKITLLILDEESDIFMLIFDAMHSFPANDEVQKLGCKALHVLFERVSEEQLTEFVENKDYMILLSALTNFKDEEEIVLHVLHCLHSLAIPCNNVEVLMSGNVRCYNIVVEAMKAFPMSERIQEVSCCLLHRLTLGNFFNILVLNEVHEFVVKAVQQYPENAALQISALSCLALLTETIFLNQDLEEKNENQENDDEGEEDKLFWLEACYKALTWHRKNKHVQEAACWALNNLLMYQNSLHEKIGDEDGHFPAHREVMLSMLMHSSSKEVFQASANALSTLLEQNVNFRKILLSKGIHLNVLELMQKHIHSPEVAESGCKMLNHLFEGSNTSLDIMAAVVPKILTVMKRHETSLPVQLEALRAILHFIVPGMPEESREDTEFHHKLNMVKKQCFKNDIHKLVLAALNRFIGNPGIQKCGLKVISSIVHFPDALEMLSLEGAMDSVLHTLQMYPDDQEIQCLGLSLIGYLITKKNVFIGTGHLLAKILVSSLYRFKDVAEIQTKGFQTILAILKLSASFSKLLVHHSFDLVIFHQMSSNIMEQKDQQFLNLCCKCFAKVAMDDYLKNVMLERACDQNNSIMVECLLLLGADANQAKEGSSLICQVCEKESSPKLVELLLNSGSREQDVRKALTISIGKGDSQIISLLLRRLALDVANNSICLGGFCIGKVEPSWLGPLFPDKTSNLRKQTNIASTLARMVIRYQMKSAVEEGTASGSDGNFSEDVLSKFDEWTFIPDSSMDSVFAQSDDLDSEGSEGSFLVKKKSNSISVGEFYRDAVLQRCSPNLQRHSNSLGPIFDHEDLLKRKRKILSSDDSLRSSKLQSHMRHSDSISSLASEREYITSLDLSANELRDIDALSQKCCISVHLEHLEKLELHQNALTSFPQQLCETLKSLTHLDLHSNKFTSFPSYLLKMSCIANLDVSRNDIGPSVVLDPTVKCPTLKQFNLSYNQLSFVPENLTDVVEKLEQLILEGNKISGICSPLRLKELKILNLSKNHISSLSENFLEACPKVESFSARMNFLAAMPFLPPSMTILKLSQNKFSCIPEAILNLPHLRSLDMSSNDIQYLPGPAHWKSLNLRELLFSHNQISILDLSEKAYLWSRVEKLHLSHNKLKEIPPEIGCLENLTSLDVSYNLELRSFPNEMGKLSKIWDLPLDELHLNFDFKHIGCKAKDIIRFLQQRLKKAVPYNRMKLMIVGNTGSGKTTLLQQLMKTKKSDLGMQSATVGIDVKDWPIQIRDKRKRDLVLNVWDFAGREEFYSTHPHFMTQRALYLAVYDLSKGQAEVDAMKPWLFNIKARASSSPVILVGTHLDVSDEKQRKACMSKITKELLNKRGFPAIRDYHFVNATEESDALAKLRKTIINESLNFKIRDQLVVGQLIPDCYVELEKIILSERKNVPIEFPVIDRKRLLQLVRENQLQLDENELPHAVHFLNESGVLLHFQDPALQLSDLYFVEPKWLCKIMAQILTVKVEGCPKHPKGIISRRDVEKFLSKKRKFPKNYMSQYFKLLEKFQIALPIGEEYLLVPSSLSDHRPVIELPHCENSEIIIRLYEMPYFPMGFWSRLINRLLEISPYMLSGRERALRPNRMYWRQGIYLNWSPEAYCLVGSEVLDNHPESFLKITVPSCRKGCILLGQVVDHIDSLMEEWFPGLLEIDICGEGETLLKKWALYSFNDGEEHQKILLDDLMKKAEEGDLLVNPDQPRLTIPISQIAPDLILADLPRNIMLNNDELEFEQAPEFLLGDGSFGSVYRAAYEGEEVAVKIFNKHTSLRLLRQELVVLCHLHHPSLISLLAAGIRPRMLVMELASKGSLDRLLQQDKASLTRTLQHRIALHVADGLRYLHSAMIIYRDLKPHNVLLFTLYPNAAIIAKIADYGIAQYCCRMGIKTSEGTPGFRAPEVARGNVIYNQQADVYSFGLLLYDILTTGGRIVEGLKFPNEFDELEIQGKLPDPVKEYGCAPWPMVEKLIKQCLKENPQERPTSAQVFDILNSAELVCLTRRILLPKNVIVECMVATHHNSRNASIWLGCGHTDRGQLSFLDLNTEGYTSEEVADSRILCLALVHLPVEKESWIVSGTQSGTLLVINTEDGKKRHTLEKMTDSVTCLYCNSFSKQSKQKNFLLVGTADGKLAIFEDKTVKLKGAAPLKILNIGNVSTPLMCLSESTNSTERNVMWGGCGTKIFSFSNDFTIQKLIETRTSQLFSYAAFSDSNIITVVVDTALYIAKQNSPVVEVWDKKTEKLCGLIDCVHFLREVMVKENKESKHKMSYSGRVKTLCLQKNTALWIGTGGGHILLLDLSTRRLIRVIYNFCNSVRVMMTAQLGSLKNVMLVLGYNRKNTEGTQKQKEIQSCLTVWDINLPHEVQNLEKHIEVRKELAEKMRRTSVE
Assay: LRRK2 degradation assay, HiBit-tagged wildtype LRRK2 expressed from plasmid in HEK293 cells (Nano-Glo Dual-Luciferase)
Format: cell-based
Details: HiBit-tagged wildtype LRRK2, HEK293 cells, 24 hours; read-out: **WT Dmax (%)
EXPERIMENTAL_READOUT: Dmax

Recorded Dmax, per entry:
CC1(Oc2ccc3[nH]nc(-c4cc(N5CCN(C[C@@H]6CN(CC7CCN(c8ccc9c(c8)C(=O)N(C8CCC(=O)NC8=O)C9=O)CC7)CCO6)CC5)ncn4)c3c2)CC1 (stereo partly shown) [Compound 156]    50 to 70%
CC1(Oc2ccc3[nH]nc(-c4cc(N5CC[C@@H](CN6CCN(CC7CCN(c8ccc9c(c8)C(=O)N(C8CCC(=O)NC8=O)C9=O)CC7)CC6)C5)ncn4)c3c2)CC1 (stereo partly shown) [Compound 167]    50 to 70%
CC1(Oc2ccc3[nH]nc(-c4cc(N5CC(CC6CCN(CC7CCN(c8ccc9c(c8)C(=O)N(C8CCC(=O)NC8=O)C9=O)CC7)CC6)C5)ncn4)c3c2)CC1 (stereo not shown) [Compound 164]    50 to 70%
CC1(Oc2ccc3[nH]nc(-c4cc(N5CCN(C[C@H]6CN(CC7CCN(c8ccc9c(c8)C(=O)N(C8CCC(=O)NC8=O)C9=O)CC7)CCO6)CC5)ncn4)c3c2)CC1 (stereo partly shown) [Compound 157]    50 to 70%
CC1(Oc2ccc3[nH]nc(-c4ccnc(N5CCC56CN(CC5CCN(CC7CCN(c8ccc9c(c8)C(=O)N(C8CCC(=O)NC8=O)C9=O)CC7)CC5)C6)c4)c3c2)CC1 (stereo not shown) [Compound 162]    < 50%

Value of Dmax reported for the compound CC1(Oc2ccc3n[nH]c(-c4cc(N5CCN(CC6CC7(CCN(CC8CCN(c9ccc%10c(c9)C(=O)N(C9CCC(=O)NC9=O)C%10=O)CC8)CC7)C6)CC5)ncn4)c3c2)CC1 (stereo not shown) [Compound 177] is 50 to 70%

Value of Dmax reported for the compound CC1(Oc2ccc3[nH]nc(-c4cc(N5CCC(CN6CC7(CN(CC8CCN(c9ccc%10c(c9)C(=O)N(C9CCC(=O)NC9=O)C%10=O)CC8)C7)C6)CC5)ncn4)c3c2)CC1 (stereo not shown) [Compound 175] is 50 to 70%

Value of Dmax reported for the compound CC1(Oc2ccc3[nH]nc(-c4ccnc(N5CC(CCC6CCN(CC7CCN(c8ccc9c(c8)C(=O)N(C8CCC(=O)NC8=O)C9=O)CC7)CC6)C5)c4)c3c2)CC1 (stereo not shown) [Compound 165] is < 50%

Value of Dmax reported for the compound CC1(Oc2ccc3[nH]nc(-c4ccnc(N5CC6(CN(CC7CCN(CC8CCN(c9ccc%10c(c9)C(=O)N(C9CCC(=O)NC9=O)C%10=O)CC8)CC7)C6)C5)c4)c3c2)CC1 (stereo not shown) [Compound 161] is 50 to 70%

Value of Dmax reported for the compound CC1(Oc2ccc3[nH]nc(-c4ccnc(N5CC(CC6CCN(CC7CCN(c8ccc9c(c8)C(=O)N(C8CCC(=O)NC8=O)C9=O)CC7)CC6)C5)c4)c3c2)CC1 (stereo not shown) [Compound 160] is 50 to 70%

* * *

Target: wildtype LRRK2 (Homo sapiens)
Construct: expressed in transfected cells; host or cells: HEK293 (ATCC CRL-1573), transient transfection, mammalian expression vector with ubiquitin promoter
Assay: LRRK2 degradation assay, HiBit-tagged wildtype LRRK2 expressed from plasmid in HEK293 cells (Nano-Glo Dual-Luciferase)
Type: cell-based
Details: HiBit-tagged wildtype LRRK2 in HEK293 cells, 24 hours; read-out: **WT Dmax (%)
EXPERIMENTAL_READOUT: Dmax

Recorded Dmax, per entry:
CC1(Oc2ccc3[nH]nc(-c4ccnc(N5CCC(CN6CCN(C(=O)C7CCN(c8ccc9c(c8)C(=O)N(C8CCC(=O)NC8=O)C9=O)CC7)CC6)CC5)c4)c3c2)CC1 (centres unmarked)    50 to 70%
CC1(Oc2ccc3[nH]nc(-c4cc(N5CCN(CC6(F)CCN(CC7CCN(c8ccc9c(c8)C(=O)N(C8CCC(=O)NC8=O)C9=O)CC7)CC6)CC5)ncn4)c3c2)CC1 (centres unmarked)    < 50%
CC1(Oc2ccc3[nH]nc(-c4cc(N5CCC(CN6CCN(CC7CCN(c8cccc9c8C(=O)N(C8CCC(=O)NC8=O)C9=O)CC7)CC6)CC5)ncn4)c3c2)CC1 (centres unmarked)    50 to 70%

Value of Dmax reported for the compound CC1(Oc2ccc3[nH]nc(-c4cc(N5CCC(C(=O)N6CCC(CC7CCN(c8ccc9c(c8)C(=O)N(C8CCC(=O)NC8=O)C9=O)CC7)CC6)CC5)ncn4)c3c2)CC1 (centres unmarked) is < 50%

Value of Dmax reported for the compound C[C@H]1CN(c2cc(-c3n[nH]c4ccc(OC5(C)CC5)cc34)ncn2)CCN1C[C@H]1CCN(CC2CCN(c3ccc4c(c3)C(=O)N(C3CCC(=O)NC3=O)C4=O)CC2)C1 (some centres unmarked) is ≥ 70%

* * *

Biological target: LRRK2 (endogenous, HiBit tagged) (Homo sapiens)
Construct: endogenous in cells; host or cells: HEK293 cells with HiBit knock-in at the endogenous LRRK2 locus, stably expressing firefly luciferase
Assay: Endogenous LRRK2 degradation assay, endogenous gene C-terminally HiBit-tagged in HEK293 cells (Nano-Glo Dual Luciferase)
Type: cell-based
Conditions: endogenous HiBit-tagged LRRK2 in HEK293 cells, 24 hours treatment; read-out: *Endogenous WT DC50
EXPERIMENTAL_READOUT: DC50

COc1c(N2CCC(CN3CCN(CC4CCN(c5cc(-c6n[nH]c7ccc(OC8(C)CC8)cc67)ncn5)CC4)C[C@@H]3C)CC2)ccc2c1CN(C1CCC(=O)NC1=O)C2=O (stereo partly drawn) [Compound 264]    < 10 nM

Value of DC50 reported for the compound COc1c(N2CCC(CN3CCN(CC4CCN(c5cc(-c6n[nH]c7cnc(OC8(C)CC8)cc67)ncn5)CC4)C(C)(C)C3)CC2)ccc2c1CN(C1CCC(=O)NC1=O)C2=O (stereo not drawn) [Compound 338] is < 10 nM

Value of DC50 reported for the compound COc1c(N2CCC(CN3CCN(CC4CCN(c5cc(-c6n[nH]c7cnc(OC8(C)CC8)cc67)ncn5)CC4)[C@@H](C)C3)CC2)ccc2c1CN(C1CCC(=O)NC1=O)C2=O (stereo partly drawn) [Compound 282] is < 10 nM

* * *

Below, each of the compounds is paired with its reported DC50 value.
Biological target: G2019S LRRK2 (Homo sapiens, UniProt Q5S007, G2019S)
Construct: expressed in transfected cells; host or cells: HEK293 (ATCC CRL-1573), transient transfection, mammalian expression vector with ubiquitin promoter
Assay: LRRK2 degradation assay, HiBit-tagged G2019S LRRK2 expressed from plasmid in HEK293 cells (Nano-Glo Dual-Luciferase)
Type: cell-based
Details: HiBit-tagged G2019S LRRK2, HEK293 cells, 24 hours

Recorded DC50, per entry:
CC1(Oc2ccc3[nH]nc(-c4ccnc(N5CCC(Cc6ccc(CC7CCN(c8ccc9c(c8)C(=O)N(C8CCC(=O)NC8=O)C9=O)CC7)cc6)CC5)c4)c3c2)CC1 (centres unmarked)    ≥ 100 nM
CC1(Oc2ccc3[nH]nc(-c4ccnc(N5CCC56CN(CC5CCN(CC7CCN(c8ccc9c(c8)C(=O)N(C8CCC(=O)NC8=O)C9=O)CC7)CC5)C6)c4)c3c2)CC1 (centres unmarked)    ≥ 100 nM
CC1(Oc2ccc3[nH]nc(-c4cc(N5CCO[C@@H](CN6CCN(CC7CCN(c8ccc9c(c8)C(=O)N(C8CCC(=O)NC8=O)C9=O)CC7)CC6)C5)ncn4)c3c2)CC1 (some centres unmarked)    < 10 nM
CC1(Oc2ccc3n[nH]c(-c4cc(N5CCN(Cc6ccc(CN7CCN(c8ccc9c(c8)C(=O)N(C8CCC(=O)NC8=O)C9=O)CC7)cc6)CC5)ncn4)c3c2)CC1 (centres unmarked)    10 to 50 nM

Now examine the next entry.
Value of DC50 reported for the compound C[C@H]1CN(c2cc(-c3n[nH]c4ccc(OC5(C)CC5)cc34)ncn2)CCN1CC1CCN(CCC2CCN(c3ccc4c(c3)C(=O)N(C3CCC(=O)NC3=O)C4=O)CC2)CC1 (some centres unmarked) is < 10 nM
